- STUDY_TARGET: ligand binding domain of human RORγ (Homo sapiens, UniProt P51449)
- Construct: host or cells: HEK293t
- Sequence (P51449 269-508 limits assumed): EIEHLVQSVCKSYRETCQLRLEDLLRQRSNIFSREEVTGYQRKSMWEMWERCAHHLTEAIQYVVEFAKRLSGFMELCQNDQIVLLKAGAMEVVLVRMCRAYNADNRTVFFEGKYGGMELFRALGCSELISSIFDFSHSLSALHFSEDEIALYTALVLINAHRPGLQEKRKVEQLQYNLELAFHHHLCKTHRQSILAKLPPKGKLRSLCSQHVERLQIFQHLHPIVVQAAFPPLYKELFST
- TEST_METHOD_NOTES: RORγ Reporter Assay (Gal4)
- Assay type: cell-based
- PROTOCOL_CONDITIONS: RORγ Reporter Assay (Gal4), HEK293t reporter cells, compound at 0.1 μM; values are activity range bounds
# Gal4 activity range @ 0.1 μM (% inhibition) values compiled below

Recorded results for 5 compounds are shown here.
COMPOUND	RECORDED_MEASUREMENT
O=S(=O)(CC(F)(F)F)NC1CCC(CNc2ncnc(N(Cc3ccc(C(F)(F)F)cc3)C3CC3)c2F)CC1 (centres unmarked)	>20 % inhibition
NC(=O)Cc1ccc(CNc2ncnc(N(Cc3ccc(C(F)(F)F)cc3)C3CCOC3)c2F)cc1 (centres unmarked)	>0 % inhibition
FCC1(CNc2ncnc(N(Cc3ccc(C(F)(F)F)cc3)C3CC3)c2F)CCOCC1	>80 % inhibition
COc1ccc2cc(CN(C)c3ncnc(NCc4ccc(CC(N)=O)cc4)c3F)ccc2c1	>20 % inhibition
CS(=O)(=O)Nc1ncc(CNc2ncnc(N(Cc3ccc(C(F)(F)F)cc3)C3CC3)c2F)cc1F	>0 % inhibition

Given the compound N#CC[C@H]1CC[C@H](CNc2ncnc(N(Cc3ccc(C(F)(F)F)cc3)C3CC3)c2F)CC1 , write its reported Gal4 activity range @ 0.1 μM (% inhibition).
>80 % inhibition

Given the compound NC(=O)Cc1ccc(CNc2ncnc(N(Cc3cccc(C(F)(F)F)c3)C3CC3)c2F)cc1 , write its reported Gal4 activity range @ 0.1 μM (% inhibition).
>50 % inhibition

Given the compound CS(=O)(=O)c1ccc(CNc2ncnc(N(Cc3ccc(C(F)(F)F)nc3)C3CC3)c2F)cn1 , write its reported Gal4 activity range @ 0.1 μM (% inhibition).
>0 % inhibition

Attribution: patent US10683293B2
